Test: CCTE_Shafer_MEA_dev_per_network_spike_spike_number_mean: CCTE's Neural Network Formation Assay for Mean Number of Spikes in a Network Spike, Shafer Lab (AID 2284053)
Active and inactive are the calls of the source. How the source made its calls: active means hit-call score of the fitted dose curve at least 0.9, where 1 is the maximum; inactive means score below 0.9.
Possible outcomes: true (1) (active), false (0) (inactive)

| COMPOUND | CLASSIFICATION |
| --- | --- |
| ClC1=C(Cl)[C@]2(Cl)[C@H]3[C@H]([C@@H]4C=C[C@H]3C4)[C@@]1(Cl)C2(Cl)Cl | true (1) |
| COC(=O)Nc1nc2ccccc2[nH]1 | true (1) |
| ClC1=C(Cl)C2(Cl)C3C(Cl)C=CC3C1(Cl)C2(Cl)Cl (stereo not given) | true (1) |
| [Cl-].[Cl-].[Hg+2] | true (1) |
| CCC[CH2][Sn]([Cl])([CH2]CCC)[CH2]CCC | true (1) |
| CC(C)COC(=O)c1ccccc1C(=O)OCC(C)C | true (1) |
| C1=Cc2cccc3cccc1c23 | false (0) |
| CN(C)[C@@H]1C(=O)C(C(N)=O)=C(O)[C@@]2(O)C(=O)C3=C(O)c4c(O)cccc4[C@@](C)(O)[C@H]3C[C@@H]12 | false (0) |
| CC(C)(C)C(O)(CCc1ccc(Cl)cc1)Cn1cncn1 (stereo not given) | true (1) |
| CCCCOC(=O)c1ccccc1C(=O)OCc1ccccc1 | false (0) |
